The reported numbers originate from ChEMBL document CHEMBL1909046.

assay: DRUGMATRIX: Potassium Channel [KATP] radioligand binding (ligand: [3H] Glyburide); type: cell membranes, Membrane; settings: hit-t15; Not Active = under 50% inhibition at 10 µM
quantityMeasured: Ki

Example molecules with recorded Ki:
                                   molecule  quantitymeasured      result
0  CC(C)C(Br)C(=O)NC(N)=O (stereo not drawn)                Ki  Not Active
1  Cc1ccccc1N1C(=O)c2cc(S(N)(=O)=O)c(Cl)cc2NC1C (stereo not drawn)                Ki  Not Active
2  Cc1ccc(-c2cc(C(F)(F)F)nn2-c2ccc(S(N)(=O)=O)cc2)cc1                Ki  Not Active
3         Cc1ccc2cc3c(ccc4ccccc43)c3c2c1CC3                Ki  Not Active
4      CCCOc1ccccc1-c1nc2nn[nH]c2c(=O)[nH]1                Ki  Not Active
5  CC1CC(OC(=O)C(O)c2ccccc2)CC(C)(C)C1 (stereo not drawn) [CYCLANDELATE]                Ki  Not Active
6                 N#CC(C#N)=Cc1ccc(O)c(O)c1                Ki  Not Active

Read the next record carefully.
Recorded result, CCC1(c2ccc(N)cc2)CCC(=O)NC1=O (stereo not drawn) [AMINOGLUTETHIMIDE] , Ki: Not Active

====

Molecular target: Alpha-1D adrenergic receptor (Homo sapiens); further: in other assays of this panel Not Active means under 50% inhibition at 10 µM
Sequence (P25100 whole entry): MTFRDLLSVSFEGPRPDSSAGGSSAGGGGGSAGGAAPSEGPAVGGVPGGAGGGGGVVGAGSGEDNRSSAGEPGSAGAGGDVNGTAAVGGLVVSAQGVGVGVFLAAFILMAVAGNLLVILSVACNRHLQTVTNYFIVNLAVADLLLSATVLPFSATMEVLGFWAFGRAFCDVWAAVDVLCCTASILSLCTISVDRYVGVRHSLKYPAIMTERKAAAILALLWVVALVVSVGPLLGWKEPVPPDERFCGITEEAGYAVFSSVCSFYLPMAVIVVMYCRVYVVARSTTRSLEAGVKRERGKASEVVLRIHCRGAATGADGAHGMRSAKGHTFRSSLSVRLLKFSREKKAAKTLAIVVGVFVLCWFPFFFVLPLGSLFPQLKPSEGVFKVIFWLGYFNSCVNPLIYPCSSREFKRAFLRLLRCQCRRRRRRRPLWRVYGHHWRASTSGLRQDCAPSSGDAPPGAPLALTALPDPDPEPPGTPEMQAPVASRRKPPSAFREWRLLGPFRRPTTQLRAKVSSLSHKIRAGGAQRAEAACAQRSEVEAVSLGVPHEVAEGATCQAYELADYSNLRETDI
Type: cell membranes, HEK293, Membrane
Details: read-out: Ki
quantityMeasured: pKi
Recall that pKi is obtained by taking minus log10 of the concentration measured in molar.

Param item: CN(C)CCCN1c2ccccc2Sc2ccccc21 ; param system: Alpha-1D adrenergic receptor (Homo sapiens); output pKi: 8.21

For O=C(CCCN1CC=C(n2c(=O)[nH]c3ccccc32)CC1)c1ccc(F)cc1 on Alpha-1D adrenergic receptor (Homo sapiens), measured pKi was 7.39

So the reported pKi for CC(C)[C@H]1C(=O)N2CCC[C@H]2[C@]2(O)O[C@](NC(=O)[C@@H]3C=C4c5cccc6[nH]cc(c56)C[C@H]4N(C)C3)(C(C)C)C(=O)N12 , on Alpha-1D adrenergic receptor (Homo sapiens), turned out to be 8.06

Test item CC/C(=C(\c1ccccc1)c1ccc(OCCN(C)C)cc1)c1ccccc1 ; Alpha-1D adrenergic receptor (Homo sapiens); reported pKi was 5.61

Measured pKi (Alpha-1D adrenergic receptor (Homo sapiens)), entry Clc1cccc(Cl)c1NC1=NCCN1 : 6.23

Tested on Alpha-1D adrenergic receptor (Homo sapiens), the item CC(C)[C@@]1(NC(=O)[C@@H]2C[C@@H]3c4cccc5[nH]cc(c45)C[C@H]3N(C)C2)O[C@@]2(O)[C@@H]3CCCN3C(=O)[C@H](Cc3ccccc3)N2C1=O.CS(=O)(=O)O [DIHYDROERGOCRISTINE MESYLATE] showed pKi equal to 8.44

Summary: CC(C)N1CCN(c2ccc(OCC3COC(Cn4cncn4)(c4ccc(Cl)cc4Cl)O3)cc2)CC1 (stereo not drawn) , Alpha-1D adrenergic receptor (Homo sapiens), pKi = 5.15

// molecule CN1CCN(CCCN2c3ccccc3Sc3ccc(Cl)cc32)CC1 , assay Alpha-1D adrenergic receptor (Homo sapiens), pKi value: 7.80

====

target: UniProt:P12822; assay type: tissue-based, Lung
Sequence (P12822 whole entry): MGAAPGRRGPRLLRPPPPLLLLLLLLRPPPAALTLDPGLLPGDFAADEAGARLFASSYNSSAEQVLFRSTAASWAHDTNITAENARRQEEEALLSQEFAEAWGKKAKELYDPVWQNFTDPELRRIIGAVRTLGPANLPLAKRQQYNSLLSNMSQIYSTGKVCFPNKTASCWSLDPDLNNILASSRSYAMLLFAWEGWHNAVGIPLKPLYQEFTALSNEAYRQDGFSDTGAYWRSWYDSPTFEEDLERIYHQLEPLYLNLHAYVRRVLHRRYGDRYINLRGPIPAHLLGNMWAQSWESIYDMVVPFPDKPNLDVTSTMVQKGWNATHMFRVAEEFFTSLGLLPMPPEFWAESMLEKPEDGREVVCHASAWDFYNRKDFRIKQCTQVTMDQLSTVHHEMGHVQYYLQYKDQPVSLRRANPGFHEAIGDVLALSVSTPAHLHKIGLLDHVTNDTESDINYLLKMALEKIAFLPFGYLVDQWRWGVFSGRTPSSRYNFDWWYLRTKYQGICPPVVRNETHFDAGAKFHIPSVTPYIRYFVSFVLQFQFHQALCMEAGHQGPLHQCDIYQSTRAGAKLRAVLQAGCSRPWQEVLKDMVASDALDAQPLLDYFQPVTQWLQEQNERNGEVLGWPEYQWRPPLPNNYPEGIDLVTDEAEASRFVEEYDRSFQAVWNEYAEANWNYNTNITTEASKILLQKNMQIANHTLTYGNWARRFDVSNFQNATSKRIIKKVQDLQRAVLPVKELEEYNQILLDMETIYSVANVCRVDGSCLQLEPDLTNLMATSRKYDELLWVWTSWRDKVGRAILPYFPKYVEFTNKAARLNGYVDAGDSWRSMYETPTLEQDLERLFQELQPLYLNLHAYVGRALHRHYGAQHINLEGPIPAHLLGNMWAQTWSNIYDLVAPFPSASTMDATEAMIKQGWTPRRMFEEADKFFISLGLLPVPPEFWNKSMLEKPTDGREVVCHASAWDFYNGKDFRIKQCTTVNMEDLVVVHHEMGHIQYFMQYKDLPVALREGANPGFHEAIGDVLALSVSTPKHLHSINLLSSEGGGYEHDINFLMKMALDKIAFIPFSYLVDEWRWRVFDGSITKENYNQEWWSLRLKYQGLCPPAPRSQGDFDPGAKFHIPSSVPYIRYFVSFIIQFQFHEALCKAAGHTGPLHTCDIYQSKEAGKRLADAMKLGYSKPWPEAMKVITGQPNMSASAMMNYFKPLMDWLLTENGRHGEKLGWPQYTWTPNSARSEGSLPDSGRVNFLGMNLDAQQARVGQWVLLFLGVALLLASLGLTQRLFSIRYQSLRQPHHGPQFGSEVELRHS
quantityMeasured: IC50

compound	result
CC[C@@]1(O)C[C@H](O[C@H]2C[C@H](N(C)C)[C@H](O[C@H]3C[C@H](O)[C@H](O[C@H]4CCC(=O)[C@H](C)O4)[C@H](C)O3)[C@H](C)O2)c2c(cc3c(c2O)C(=O)c2c(O)cccc2C3=O)[C@H]1C(=O)OC	Not Active
Cc1ccccc1N1C(=O)c2cc(S(N)(=O)=O)c(Cl)cc2NC1C (centres undefined)	Not Active
Nc1nc(N)nc(-c2cc(Cl)ccc2Cl)n1.O=C(O)/C=C\C(=O)O [IRSOGLADINE MALEATE]	Not Active
CC1(C)O[C@@H]2C[C@H]3[C@@H]4CCC5=CC(=O)CC[C@]5(C)[C@@]4(F)[C@@H](O)C[C@]3(C)[C@]2(C(=O)CCl)O1 [HALCINONIDE]	Not Active

====

target: Sigma non-opioid intracellular receptor 1 (Homo sapiens, UniProt Q99720); assay: DRUGMATRIX: Sigma1 radioligand binding (ligand: [3H] Haloperidol); type: cell membranes, Jurkat, Membrane; settings: Not Active = under 50% inhibition at 10 µM; read-out: Ki
Sequence (Q99720 whole entry): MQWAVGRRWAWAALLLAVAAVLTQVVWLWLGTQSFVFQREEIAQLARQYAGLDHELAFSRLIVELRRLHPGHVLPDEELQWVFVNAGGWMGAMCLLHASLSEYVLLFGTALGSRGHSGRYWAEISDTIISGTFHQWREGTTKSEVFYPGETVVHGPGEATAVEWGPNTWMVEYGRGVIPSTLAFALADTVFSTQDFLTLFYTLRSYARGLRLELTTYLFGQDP
quantityMeasured: Ki (nM)
Give just the number in nM; leave the unit off.

Query CN1CCN(CCCN2c3ccccc3Sc3ccc(Cl)cc32)CC1 on Sigma non-opioid intracellular receptor 1 (Homo sapiens, UniProt Q99720); Ki returned: 23

# CN(Cc1ccc(C(C)(C)C)cc1)Cc1cccc2ccccc12 with Sigma non-opioid intracellular receptor 1 (Homo sapiens, UniProt Q99720): Ki is 1660

Form field Ki for item CN(C)CCCN1c2ccccc2Sc2ccccc21 on Sigma non-opioid intracellular receptor 1 (Homo sapiens, UniProt Q99720): 114

Here C1CCC(C(CC2CCCCN2)C2CCCCC2)CC1 (stereo not given) was tested on Sigma non-opioid intracellular receptor 1 (Homo sapiens, UniProt Q99720), and its Ki came to 1090

Simply: CC(C)N1CCN(c2ccc(OCC3COC(Cn4cncn4)(c4ccc(Cl)cc4Cl)O3)cc2)CC1 (stereo not given) , Sigma non-opioid intracellular receptor 1 (Homo sapiens, UniProt Q99720), Ki = 214

====

test: DRUGMATRIX: Glutamate, AMPA radioligand binding (ligand: [3H] AMPA); assay type: cell membranes, Rattus norvegicus, Wistar, Cerebral cortex, Membrane; conditions: Not Active = under 50% inhibition at 10 µM
quantityMeasured: Ki

molecule	Ki
C1CCC(C(CC2CCCCN2)C2CCCCC2)CC1 (stereo not drawn)	Not Active
CNCCCN1c2ccccc2CCc2ccccc21	Not Active
OCCN(CCO)c1nc(N2CCCCC2)c2nc(N(CCO)CCO)nc(N3CCCCC3)c2n1	Not Active
CC1=C2C(=CO[C@H](C)[C@H]2C)C(O)=C(C(=O)O)C1=O	Not Active

For this molecule ( CC(C)(Oc1ccc(Cl)cc1)C(=O)O ), measured Ki is Not Active

====

test: DRUGMATRIX: Purinergic P2X radioligand binding (ligand: [3H] alpha, beta-Methylene-ATP); type: cell membranes, Oryctolagus cuniculus, New Zealand albino, Urinary bladder, Membrane; details: Not Active = under 50% inhibition at 10 µM
quantityMeasured: Ki

>>> df
                                   compound  quantitymeasured      result
0  C[C@@H]1CN(c2c(F)c(N)c3c(=O)c(C(=O)O)cn(C4CC4)c3c2F)C[C@H](C)N1 [SPARFLOXACIN]                Ki  Not Active
1  COc1cc2c3cc1Oc1cc(ccc1O)C[C@@H]1c4c(cc(OC)c(O)c4Oc4ccc(cc4)C[C@@H]3N(C)CC2)CC[N+]1(C)C.[Cl-]                Ki  Not Active
2  CC(C)[C@H]1C(=O)N2CCC[C@H]2[C@]2(O)O[C@](NC(=O)[C@@H]3C=C4c5cccc6[nH]cc(c56)C[C@H]4N(C)C3)(C(C)C)C(=O)N12 [ERGOCORNINE]                Ki  Not Active

====

target: Beta-1 adrenergic receptor (Homo sapiens, UniProt P08588); experiment: DRUGMATRIX: Adrenergic beta1 radioligand binding (ligand: [125I] Cyanopindolol); format: cell membranes, CHO-K1, Membrane; conditions: cho-k1; Not Active = under 50% inhibition at 10 µM
Sequence (P08588 whole entry): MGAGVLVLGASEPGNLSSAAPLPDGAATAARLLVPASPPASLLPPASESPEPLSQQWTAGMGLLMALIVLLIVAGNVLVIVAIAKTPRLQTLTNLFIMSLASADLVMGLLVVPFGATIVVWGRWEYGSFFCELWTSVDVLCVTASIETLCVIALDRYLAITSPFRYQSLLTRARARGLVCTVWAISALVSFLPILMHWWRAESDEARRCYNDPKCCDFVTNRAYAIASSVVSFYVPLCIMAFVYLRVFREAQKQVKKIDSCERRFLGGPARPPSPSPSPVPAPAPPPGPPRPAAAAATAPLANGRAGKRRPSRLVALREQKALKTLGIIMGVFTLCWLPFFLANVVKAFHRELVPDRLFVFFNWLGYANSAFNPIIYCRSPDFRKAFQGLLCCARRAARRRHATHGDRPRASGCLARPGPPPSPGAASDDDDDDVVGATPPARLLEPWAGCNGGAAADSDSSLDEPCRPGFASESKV

smiles	IC50
C[C@H]1O[C@@H](O[C@H]2[C@@H](O)C[C@H](O[C@H]3[C@@H](O)C[C@H](O[C@H]4CC[C@@]5(C)[C@H](CC[C@@H]6[C@@H]5C[C@@H](O)[C@]5(C)[C@@H](C7=CC(=O)OC7)CC[C@]65O)C4)O[C@@H]3C)O[C@@H]2C)C[C@H](O)[C@@H]1O	Not Active
Cc1ccc(N(CC2=NCCN2)c2cccc(O)c2)cc1	Not Active
N[C@@H]1[C@H]2CN(c3nc4c(cc3F)c(=O)c(C(=O)O)cn4-c3ccc(F)cc3F)C[C@@H]12	Not Active
